Biological target: T1, VEGF (human, UniProt P15692-4 27-191, limits assumed)
T1 construct: also called human VEGF; vascular endothelial growth factor
T1 sequence (P15692 other isoform, or with tags, fused parts or gaps limits assumed): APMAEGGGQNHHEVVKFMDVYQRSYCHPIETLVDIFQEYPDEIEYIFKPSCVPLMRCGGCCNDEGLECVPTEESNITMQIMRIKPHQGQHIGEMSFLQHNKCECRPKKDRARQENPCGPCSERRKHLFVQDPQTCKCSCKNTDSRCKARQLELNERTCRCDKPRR
Test: BIAcore-2000 SPR, wt = Y0192
# Kd (wt) / Kd (mut) per entry

{"columns": ["binder", "Kd (wt) / Kd (mut)"],
 "data": [
  ["Y0313-1 (Fab, V domains shown, Combination variant: Y0243-1 plus VH3 H101Y and S105T; soluble Fab) VH: EVQLVESGGGLVQPGGSLRLSCAASGYDFTHYGMNWVRQAPGKGLEWVGWINTYTGEPTYAADFKRRFTFSLDTSKSTAYLQMNSLRAEDTAVYYCAKYPYYYGTSHWYFDVWGQGTL VL: DIQLTQSPSSLSASVGDRVTITCRANEQLSNYLNWYQQKPGKAPKVLIYFTSSLHSGVPSRFSGSGSGTDFTLTISSLQPEDFATYYCQQYSTVPWTFGQGTKVEIKR", "≥ 20 ratio"],
  ["Y0238-3 (Fab, V domains shown, CDRH3 variant (H101Y, S105T) from library YC-81; soluble Fab) VH: EVQLVESGGGLVQPGGSLRLSCAASGYTFTNYGINWVRQAPGKGLEWVGWINTYTGEPTYAADFKRRFTFSLDTSKSTAYLQMNSLRAEDTAVYYCAKYPYYYGTSHWYFDVWGQGTL VL: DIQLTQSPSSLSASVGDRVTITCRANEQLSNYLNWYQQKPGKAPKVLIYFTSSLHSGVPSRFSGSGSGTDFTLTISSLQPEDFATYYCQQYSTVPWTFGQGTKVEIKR", "≥ 14 ratio"],
  ["Y0238-7 (Fab, V domains shown, Library YC-81 (VH3) on the pY0192 template; substitutions deduced against Y0192; soluble Fab) VH: EVQLVESGGGLVQPGGSLRLSCAASGYTFTNYGINWVRQAPGKGLEWVGWINTYTGEPTYAADFKRRFTFSLDTSKSTAYLQMNSLRAEDTAVYYCAKYPYYWGTSHWYFDVWGQGTL VL: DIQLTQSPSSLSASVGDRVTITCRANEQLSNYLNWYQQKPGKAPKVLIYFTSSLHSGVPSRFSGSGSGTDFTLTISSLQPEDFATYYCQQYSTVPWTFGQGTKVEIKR", "≥ 7.3 ratio"]
]}
